- assay.info: Mouse liver microsome stability assay
- Type: in vitro ADME
- study.conditions: percentage remaining relative to t0
measure: stability (2 h, microsomes)
Report the figure along with its unit, number first.

Sample answers from the record:
CCCCN(CCCC)C(=O)c1ncn2c(=O)n(C)nnc12: 1 ± 1%
CCN(CC)C(=O)c1ncn2c(=O)n(C)nnc12: 81 ± 1%
Cn1nnc2c(C(N)=O)ncn2c1=O [TMZ, temozolomide]: 87 ± 6%
Cn1nnc2c(-c3ccccc3)ncn2c1=O: 44 ± 2%

Now look at this one.
Req: Which stability (2 h, microsomes) value belongs to `Cn1nnc2c(Cl)ncn2c1=O` ?
Resp: 91 ± 3%

###

- assay.info: Stability control without microsomes
- Assay type: physicochemical
- study.conditions: microsomes replaced with PBS, percentage remaining relative to t0
measure: stability (2 h, no microsomes) (%)
One number for each entry, in %.

Consider the worked cases shown below.
Cn1nnc2c(Cl)ncn2c1=O [Compound 19]: 91
Cn1nnc2c(C(N)=O)ncn2c1=O [TMZ, temozolomide]: 86
Cn1nnc2c(-c3ccccc3)ncn2c1=O [Compound 23]: 103
CCN(CC)C(=O)c1ncn2c(=O)n(C)nnc12 [Compound 6]: 95

Could you now look at the following molecule, please?
Req: Value lookup for stability (2 h, no microsomes); key = CCCCN(CCCC)C(=O)c1ncn2c(=O)n(C)nnc12 [Compound 7]
Resp: 98
